FYI, the data here is from the RNAGym collection of RNA variant scans (doi:10.1126/science.aae0568).

B1: tRNA (parent)
chain: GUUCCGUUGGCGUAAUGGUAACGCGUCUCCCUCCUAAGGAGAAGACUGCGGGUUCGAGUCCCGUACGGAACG

# Variants of: B1
# run_description: yeast fitness relative to wild type (ratio to wild type); higher = fitter; tRNA-Arg(CCU), competitive growth, 37 C, YPD
This sample holds only a part of the variants without activity.
measure_name: yeast fitness

GUUCCGUUGGCGUAAUGGUAACGCGUCUCCCUCCUAAGGAGAAGAUUGCGGGUUCGAGUCCCGUACGGUGCG 0.761
GUUCCGUUGGCGUAAUCGUAACGCGUCUCCCUCCUAAGGAGCAGACUGCGGGUUCGAGUCCCGUACGGAACG 0.618
GUUCCGUUGGCGUAAUGGUAAGGCGUCUCCCUCCUAAGGAGAAGACUGCGGGUUCGAGUCCUGUACGGAACG 0.879
GUUCCGUUGGCCUAAUGGUAACGCGUCUACCUCCUAAGGAGAAGACUGCGGGUUCGAGUCCCGUACGGAACG 0.684
GUUCCGUUGGCGUAAUGGUAACGUGUCUCCCUCCUGAGGAGAAGACUGCGGGUUCGAGUCCCGAACGGAACG 0.595
GUUCCGUUAGCGUAAUGGUAACGCGUCUCCCUCCUAAGCAGAACACUGCGGGUUAGAGUCCCGUACGGAACG 0.606
GUUCCGUUAGCGUAAUGGUAACGCGUCUCCCUCCUAAGGAGAAGACUGUGGGUUCGAGUCCCGUACGGUACG 0.785
GUUCCGUUGGCGUAAUGGUAACGCGUCUCCCUCCGAAGGAGAAGUCUGCGGGUUCGAGUCCCGUACGGAACG 0.589
GUUCCGUUGGCGUAAUGGUCACGCGUCCCCCUCCUAAGGUGAAGACUGCGGGUUCGAGUCCCGUACGGAACG 0.971
GUACCGUUGGCGUAAUGGUAACGCGUCUCCCUCUUAAGGAGAAGACUGCGGGUUCGAGUCCCGUACGGAACG 0.735
GUCCCGUUGGCGUAAUGGUAACGCGUCUCCCUCCUAAGGAGAAGACUGGGGGUUCGAGUCCCGUUCGGAACG 0.658
GUUCCGUUGGCGUAAUGGUGACGCGUCUCCCUCCUAAGGAGAAGACUGCGGGUCCGAGUCCCGUACGGAACG 0.719
GUUCCGUUGGCGUAAUGGUAACGUGUCUCCCUCCUAAGGAGAAGACUGCGGGUUCGACUCCCGUACGGAACG 0.89
GUUCCGUUGGCGUAAUGGUGACGCGUCUCCCUCGUAAGGAGCUGACUGCGGGUUCGAGUCCCGUACGGAACG 0.604
GUACCGUUGGCGUAAUGGUAACGCGUCUCCCUCCUAAGGAGAUGACUGCGGGUUCGAGUCCCGUAUGGAACG 0.635
GUUCCGUUGGCGUAAUGGCAACGCGUCUCCCUCCUAGGGAGAAGACUGUGGGUUCGAGUCCCGUACGGAACG 0.566
GUUCCGUUGGCGUAAUGGUAACGCGUCUCCCUCUUAAGGAGAAGACUGCGGGUUCGAGUCACGUACGGAACG 0.563
GUGCCGUUGGCGUAAUGGUAACGCGUCUCCCUCCUAAGGAGAAGACUGCGGGUUAGAGUCCCGUACGGAACG 0.644
GUUCCGUUGGCGUAAUGGUAACGCGACUCCCUCCUAAGGAGAAGACUGCAGGUUCGAGUCCCGUACGGAACG 0.875
GUUCCGUUGGCGUAAUGGUAACGCGUCACCCUCCUAAGGAGAAGACUGCGGGUUCCAGUCCCGUACUGAACG 0.525
GAUCCGUUGGCGUAAUGGUAACGCGUCUCCCUCCUAAGGAGAUGACUGCGGGUUCGCGUCUCGUACGGAACG 0.578
GUUCCGUUGGCGUCAUAGUAACGCGUCUCCCUCCUAAGGAGAAGACUGCGGGUUCGAGUCCCGUACGAAACG 0.522
GUUCCGUUGGCGUAAUGGUAACGCGUCUCCCUCCUGAGGAGAAGACUGCGGGUUCGAGUCCAGUACGGAACG 0.672
GUUCCGUUGGCGUAAUGGUUACGCGUCUCCUUCCUAAGGAGAAGACUGCGGGUUCGUGUCCCGUACGGAACG 0.567
GUUCCGUUGGCGUAGUGGUAACGCGUCUCCUUCCUAAGGAGAAGACUGCGGGUUCGAGUACCGUACGGAACG 0.584
GUUCCGUUGGCGUAACGGUAACGCGUCUCCCUCCUAAGGAGAAGACUGCGGGUUCGUGUCCCGUACGGAACG 0.686
GUUCCGUUGGCGUAAUGGAAAGGCGUCUCCCUCCUAAGGAGAAGACUGCGGGUUCGAGUCCCGUACGGAUCG 0.509
GUUCCGUUGGCGAAGUGGUAAGGCGUCACCCUCCUAAGGAGAAGACUGCGGGUUCGAGUCCCGUACGGAACG 0.619
GUUCCGUUGGCGUAAUGGUAACACGUUUCCCUCUUAAGGAGAAGCCUGCGGGUUCGAGUCCCGUACGGAUCG 0.57
GUUCCGUUGGCGUACUAAUAACGCGUCUCCCUCCUCAGGAGAAGACUGCGGGUUUGAGUCCCGUAAGGAACG 0.529
GUUCCGUUGGCGUAAUGGUAACGGGUCUCCCUCCUAAGGAGAAGACUGCGGGUUCGAGUCCCGUACGGACCG 0.666
GUUCCGCUGGCGUAAUGGUAACGCGUCUCCCUCCUAAGGAGAAGACUGCGGGUUGGAGUCCCGUACGGAACG 0.628
GUUCCAUUGGCGUAAUGGUACCGCGUCUCCCUCCUAAGGAGGAGACUGCGGGUUCGAGUCCCGUACGGAACG 0.692
GUUCCGUUGGCGCAAUGGUAAGGCGUCUCCCUCCUAAGGAGAAGACUGCGGGUUCGAGUCCCGUACGGAACG 0.709
GUUCCGUUGGCGUAAUGGUAACGCGUCCCCCUCCUACGGUGAAGACUGCGGGUUUGAGUCCCGUACGGAACG 0.525
GUUCCGUUGGCGUAAUGGUAACGCGUCUCCUUCCUAAGGAGAAGACUGCGGGUUCGAGUCCCGUACGGCACG 1.04
GUUCUGUUGGCGUAAUGGUAACGCGUCUCCCUCAUAAGGAGAAGACUGCGGGAUCGAGUCCCGUACGGAACG 0.562
GUUUCGUUGGCGUAAUGGUAACGCGUCUCCCUCCUAAGGAGAAGACUGCGGGUUCGCGUCCCGUACGGAACG 0.709
GUUCCGUUGGCGUAAUGGUAACGCGUCUCCCUCCUAAGGAAAAGACUGCGGGUUCGAGUCCUGUACGGAACG 0.844
GUUCCGUUGGCGUAAUGGUAACGCGUUUCCCUCCUAAGGAGAAGACUGCGGGUUCGAGUCCCGUACGGUACG 1.02
GUUCCGUUGGCGUAAUGGUAAGGCGUCUCCUUCCUAAGGAGAAGACUGUGGGUUCGAGUCCCGUACGGAACG 0.989
GUUCCGUUGGCGUAAUGGUAACGCGUCUCCCACCUAAGGAGAAGACUGCGGGUUCGAGUCCCGUACGGUACG 0.958
GUUCCGUUGGCGUAAUGGUCACGCGUCUCACUCCUAAGGAGAAGACUGCGGGUUGGAGUCCCGUACGGAACG 0.557
GUUCCGUUGGCGUAAUGGUGACGCGUCUCCCUCGUAAGGAGAUGACUGCGGGUUCGAGUCCCGUAUGGAACG 0.546
GUUCCGUUGGCGUAAGGGUAAGGCGUCUCCCUCCUAAGGAGAAGACGGCGGGUUCGAGUCCCGUACGGAACG 0.557
GUUCCGUUGGCGUAAUGGUAACGAGUCUCCGUCCUAAGGAGAAGACUGCGGGUUCGAGUCCCGUACGGAACG 0.625
GUUCCGUUGGCGUAAUGGUAACGCGUCUCCCUCCUAGGGAGAAGACUACGGGUUCGAGUCCCGUACGGAACG 0.768
GUUCCGUUGACGUAAUGGUAACGCGUUCCACUCCUAAGGAGAAGACUACAGGUUCGAGUCCCGUACGGAACG 0.985
GUUCCGUUGACGUAAUGGUAACGCGUCUCCCUCCUAAGGAGACGACUGCGGGUUCGAGUCCCGUGCGGAACG 0.589
